test system: RARg:RXRa (NR concentration 270 nM, RXRa partner concentration 90 nM); test: PBM binding z-score (relative to random genomic background probes); higher = stronger binding; sequences stand for … in GC…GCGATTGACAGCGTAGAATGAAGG
Endpoint label: PBM binding z-score

| Seq string | Endpoint label | Measurement |
| --- | --- | --- |
| GGAACGATGGCATTCGAGTTGATAGCATGGCGAT | PBM binding z-score | -0.259 |
| CAAACTAGGTCACGATAGGTCAAAGTCGAATGAC | PBM binding z-score | 6.44 |
| GCGACTGGGGCATCAGCAGGTTACCAAAACTTAA | PBM binding z-score | 0.879 |
| ACAGACAGGTGATCAAGGTAACTCAGGCTATCAT | PBM binding z-score | 0.183 |

====

tested on: PPARa:RXRa (NR concentration 270 nM, RXRa partner concentration 90 nM); experiment: PBM binding z-score (relative to random genomic background probes); higher = stronger binding; sequences stand for … in GC…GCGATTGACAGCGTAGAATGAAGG
Entries and their PBM binding z-score values follow.

| Seq string | PBM binding z-score |
| --- | --- |
| ACAGACAGGTGACGAAGGTAACTCAGGCTATCAT | 0.582 |
| TCTTGTAGATCAAGCAGGTTAAGAAAGCCTGAGT | 0.741 |
| TCTTGTAGATCAGCAGATTAAGAAAGCTGGCCAA | 0.385 |
| CCGACTGGGGCAAAGGTTGCCATACTCAGTACGA | 4.05 |
| AGTACGAGGGCACGCTGAGTTGATAGCAGAGTAG | 1.63 |
| CCAGACAGGTGAAAGGTACCTCAGTCTGGTACGC | 2.28 |
| ATCGAAAGGGCGAGGTGAGTATAGAGAAAGGGAA | 1.38 |
| CCTACTGGGCCATCAGGTCATTGACATCAACGTT | 2.7 |
| TGAATGAGGTTATAAGATCAGGGATCGTTGCAAA | 2.81 |
| TCAGACAGGTGAAGGTAACGCAGGTACGCAGTCG | 1.16 |
| CCTACCGGGCCATCAGGTCATTGATATCAACGTT | 1.93 |
| CAAACTAGGTCACAGGAAGGTCAAAGTCCGCATG | 6.19 |
| CCTAGCAGGCCAATTTGGGTCACTCAAGGCTTGA | 2.37 |
| AATACAGGGTCATCGTCGGCCAGAGTACGCACAG | 6.44 |
| CCAGACAGATGAGAAGGTAACTCAGCCTCGATTA | -0.358 |
| TAGCCTAGGACATGGGCCAGTATACCACGCGAAC | -0.454 |
| CGTCCAAGGTCCTAGGAGGTCAGTGAAGACAGAT | 2.44 |
| ATCTCTAGGTAAAAGTTCAGTGTATCCCGAGGAT | 4.08 |
| CGAACGAGGGCATGGGTTGATAGCAAATGCCGAT | 2.01 |
| TCTTCTAGATCAGCAGGTTAAGAAAGCTGGCCAA | 0.759 |
| CCAACTAGGTCAGAACAGGACAGTGAAGGATGAT | 2.61 |
| CTCCAAAGGTCGTGCTCAGGTGAGTATACCAAAC | 5.08 |
| GCATATAGGTAATACAAGGTGAAGGTCCGATTGT | 1.09 |
| GCTCGGAGGACAAAGTCAGAGCTTTGTCCGTAGA | -0.568 |
| TCGTGTAGATCAACAGGAGGTTAAGAAAGATCGA | 1.22 |
| GCATATAGGTAATACAAGGTGAAAGTTCGATTGT | 2.67 |
| ATCTCTAGGTAAGACTCCGTTCAGTGAAGAACGC | -0.00199 |
| CGTCCAAGTTCAGCAGGTCAGTGAAAGCGACGTG | 2.49 |
| ATCGAAAGGTCGAGGTGATTATAGAGAAAGGGAA | 4.56 |
| AGAATGAGGTTATACGTAGATCAGTGAAGAAAGT | 2.96 |
| CCGACTGGGACATAAGGTTACCATAAGCCAGCCC | 1.21 |
| TCATATCGGTAAAAGGTGAAAGTCGGTGTGGTAA | 4.23 |
| ATCGAAAGGTGGAAGGTGAGTATACCCACCCGAA | 1.53 |
| CGAACGAGGGCATTAGTTGATAGCAAATGCCGAT | 0.595 |
| TCGTGTAGATCAGCAGGTTAAGAAAGCTGGCCAA | 0.437 |
| AATACAGGGTCACTAGGCCGGAGTAGGTACGAAT | 5.36 |
| ACTGACAGGTGAGTGAAGGTAACTCAGCTGGACG | 0.153 |
| TGAATGAGGTTAAAGATCGGGGAACGTGGCGTCG | 4.29 |
| ATCGACAGGTCGAGGTGAGTATAGAGAAAGGGAA | 1.51 |
| CGTCCAAGGTTATAGGAGGTCAGTGAAGACAGAT | 3.39 |
| TCTTGTAGGTCAAGCAGGTTAAGAAAGCCTGAGT | 5.22 |
| AGTCAAAGTTCATCTAGGTAACGTAGGATATGCT | 4.7 |

====

test system: RARb:RXRa (NR concentration 270 nM, RXRa partner concentration 90 nM); assay: PBM binding z-score (relative to random genomic background probes); higher = stronger binding; sequences stand for … in GC…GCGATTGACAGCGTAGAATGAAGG

| Seq string | PBM binding z-score |
| --- | --- |
| CCTATTAGTTGACCATAAGGGCCACCGAAGCTCG | 1.02 |
| TCATATAGGTGAATGCTAGGTGAAAGTCCGATCT | 1.22 |
| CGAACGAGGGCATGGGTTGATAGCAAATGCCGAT | 2.05 |
| CCTTACGGGACACTCCAGGTTATAGCATCGGAGT | 0.356 |
| CCTACCAGGCCAGGGTCACTCAAGCATTTCGCTT | 2.65 |
| GCTCCTAGGTCAACTGATGGTCAGCTAAAGCTCG | 4.35 |
| TCTAGCAGGCCAGAGGGTCACTCACGAGGTACGG | 2.25 |
| CGAACTAGGTCAAAGGTCAAAGTCGAGCCAACCA | 5.51 |
| AGAACGACGGCACGCTGAGTTGATAGCAGAGTAG | -0.524 |
| CTCGAAAGGTCGGTTGAAGTGAGTATACGGATAA | 3 |
| CCTCGGAGCACAGAAGGTCAGAGCTGTCCGCTTT | 2.62 |
| CCTACTGGGCCACGAAAGCTCATTGATTCAGTGA | -0.0436 |
| CCACACAGGTGAAAGGTAACTCAGTCTGGTACGC | 1.38 |

====

tested on: PPARg:RXRa DBDmut IVT, anti-RXR (DBD mutation: RXRa K156A/R161A, NR concentration 270 nM, RXRa partner concentration 90 nM); assay: PBM binding z-score (relative to random genomic background probes); higher = stronger binding; sequences stand for … in GC…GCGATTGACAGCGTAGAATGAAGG
Label label 1 when PBM binding z-score >= 3; otherwise label 0.

| Seq string | Assigned label |
| --- | --- |
| TCATATAGGTAAATGCTAAGTGAAAGTCCGATCT | label 1 |
| TAGCCTAGGTCAGATCGGGCAAGTATACGCTATA | label 0 |
| GCATATAGGTAATACAAGGTGAGAGTCCGATTGT | label 1 |
| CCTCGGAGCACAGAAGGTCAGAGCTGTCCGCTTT | label 0 |
| TTACCAAGGTGAAAGGTTGTTGATGCACGCCTTG | label 0 |
| CCGAGTAGGTTATGGGGCATTCCGGCAACGGTGA | label 1 |
| TGTCAAAGTTCAAAGGCAACGTAAGTATCCACAC | label 0 |
| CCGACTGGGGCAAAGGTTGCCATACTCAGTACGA | label 1 |
| TTACCAAGGTGAAGGTCCTTGATCCCTCTGTAGA | label 0 |
| TGAATGAGGTTAAAGAACAGGGAACGTGGCGTCG | label 0 |
| CCTACTGGGCCAAAGGTCATTTATTCCAATGCTC | label 1 |
| ATCTCTAGGTAACCAAGTTCAGTCAATGCCGAAC | label 1 |
| TCATATAGCTAAACAGGTGAAAGTCCGTAAGTTA | label 0 |
| GGATCGAGGGCAAGTTGATAGCAGAGTTTGATGG | label 1 |
| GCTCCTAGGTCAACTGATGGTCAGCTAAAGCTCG | label 1 |
| TCTGCTAGGTAAACGATGGTCAGCTAATCTGCTA | label 0 |
| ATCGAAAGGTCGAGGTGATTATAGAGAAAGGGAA | label 0 |
| CCTTACGGGTCAAGGTCATAGCACGGGTGGTACG | label 0 |
| CGTCAAAGTTCAAGGTAGCGTAACAGAAAGCAGC | label 0 |

Reference for the values: the supplement of paper PMC6555819
